Assay method text: p53 small molecule agonists, cell-based qHTS assay: qHTS cell viability counter screen (AID 1963581); further: nearly all actives have a fitted effect of over 45% in size
Stated conditions: p53RE-bla HCT-116 viability, ATP luminescence, 16 h; series mostly up to 66 µM
Results filed as inconclusive are left out. Calls of active or inactive are those of the source. The call rests on the fitted dose curve.
Possible outcomes: active, inactive

| Compound | Assigned label |
| --- | --- |
| COc1ccc(C(c2ccc(OC)cc2)C(Cl)(Cl)Cl)cc1 | inactive |
| CCOP(=S)(Oc1cnc(C(C)(C)C)nc1)OC(C)C (stereo unspecified) | inactive |
| C=CCc1ccc(OC(=O)Cc2ccccc2)c(OC)c1 | inactive |
| O=C1OC(=O)C2C1C1(Cl)C(Cl)=C(Cl)C2(Cl)C1(Cl)Cl (stereo unspecified) | inactive |
| CC(Cl)CN(C)C (stereo unspecified) | inactive |
| CNC(C)Cc1ccccc1OC (stereo unspecified) | inactive |
| CC1Sc2c(C(=O)O)c(=O)c3cc(F)c(N4CCNCC4)cc3n21 (stereo unspecified) | inactive |
| COC(=O)/C=C(\C)OP(=O)(OC)OC | inactive |
| COC1=CC(=O)O[C@@H](CCc2ccccc2)C1 | inactive |
| CCCCCCC[CH2][Sn]([Cl])([Cl])[CH2]CCCCCCC | inactive |
| NC(=O)c1ccc(N)nc1 | active |
| COC1=CC(=O)O[C@@H](/C=C/c2ccc3c(c2)OCO3)C1 | inactive |
| CC[C@H](O)C(C[C@H](C)N(C)C)(c1ccccc1)c1ccccc1 | inactive |
| Cc1ccc2cc3c(ccc4ccccc43)c3c2c1CC3 | inactive |
| N#CC(O)c1ccccc1 (stereo unspecified) | inactive |
| NNC(=O)c1cccnc1 | inactive |
| ClC1=C(Cl)[C@]2(Cl)[C@@H]3[C@H]4C[C@H]([C@@H]5O[C@H]45)[C@@H]3[C@@]1(Cl)C2(Cl)Cl | inactive |
| CNCC(=O)c1ccc(O)c(O)c1 | inactive |
| C[C@]12CC[C@H](O)C[C@H]1CC[C@@H]1[C@@H]2C[C@@H](O)[C@]2(C)[C@@H](C3=CC(=O)OC3)CC[C@]12O | active |
| OP(O)c1ccccc1 | inactive |
| CN(C)C(=O)Oc1cc(OC(=O)N(C)C)cc(C(O)CNC(C)(C)C)c1 (stereo unspecified) | inactive |
| NNCc1ccccc1 | inactive |
| O=C(N[C@H]1CN2CCC1CC2)c1cc2ccoc2cn1 | inactive |
| ClC1=C(Cl)[C@]2(Cl)[C@@H]3[C@@H]4C[C@@H]([C@H]5O[C@@H]45)[C@@H]3[C@@]1(Cl)C2(Cl)Cl | inactive |
| CCOP(=S)(NC(C)C)Oc1ccccc1C(=O)OC(C)C (stereo unspecified) | inactive |
| O=C(O)/C=C\C(=O)O | inactive |
